Source: ChEMBL document CHEMBL3045298

molecular target: Nicotinic acetylcholine receptor alpha 5 subunit (Musca domestica, UniProt A9XFY4); experiment: Displacement of [3H]IMI from Musca domestica (house fly) brain nicotinic acetylcholine receptor
Sequence (A9XFY4 whole entry): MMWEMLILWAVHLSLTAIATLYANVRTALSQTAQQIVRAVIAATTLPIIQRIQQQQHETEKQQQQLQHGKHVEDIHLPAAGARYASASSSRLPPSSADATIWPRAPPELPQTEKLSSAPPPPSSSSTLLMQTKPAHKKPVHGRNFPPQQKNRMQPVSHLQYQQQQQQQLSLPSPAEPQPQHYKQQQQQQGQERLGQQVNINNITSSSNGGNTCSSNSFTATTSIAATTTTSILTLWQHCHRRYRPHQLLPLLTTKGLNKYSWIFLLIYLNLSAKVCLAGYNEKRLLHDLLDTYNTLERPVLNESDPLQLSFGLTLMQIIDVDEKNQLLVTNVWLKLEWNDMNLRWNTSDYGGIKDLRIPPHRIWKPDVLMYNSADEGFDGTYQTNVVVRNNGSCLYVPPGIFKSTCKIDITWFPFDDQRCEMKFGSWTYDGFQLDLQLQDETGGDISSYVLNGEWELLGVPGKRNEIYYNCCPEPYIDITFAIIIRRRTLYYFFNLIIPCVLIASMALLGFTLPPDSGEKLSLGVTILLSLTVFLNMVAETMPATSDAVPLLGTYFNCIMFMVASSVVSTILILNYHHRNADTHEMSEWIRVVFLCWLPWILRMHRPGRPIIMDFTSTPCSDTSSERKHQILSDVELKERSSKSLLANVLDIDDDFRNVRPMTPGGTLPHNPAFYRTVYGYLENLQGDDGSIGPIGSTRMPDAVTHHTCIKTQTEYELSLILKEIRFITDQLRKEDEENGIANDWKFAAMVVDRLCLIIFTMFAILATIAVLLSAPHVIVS
VALUE TYPE: pKi
// pKi: -log10(molar conc.)

Check out these entries, answers already filled in.
| MOLECULE | pKi |
| --- | --- |
| O=C(/N=C1/N(CCCCCN2CCN(Cc3ccc(Cl)nc3)/C2=N/C(=O)C(F)(F)F)CCN1Cc1ccc(Cl)nc1)C(F)(F)F | 4.80 |
| O=[N+]([O-])/N=C1\N(Cc2ccc(Cl)nc2)CCN1Cc1cncc(CN2CCN(Cc3ccc(Cl)nc3)/C2=N\[N+](=O)[O-])c1 | 5.64 |
| O=C(/N=C1/N(CCCCCCCN2CCN(Cc3ccc(Cl)nc3)/C2=N/C(=O)C(F)(F)F)CCN1Cc1ccc(Cl)nc1)C(F)(F)F | 5.54 |
| O=[N+]([O-])/N=C1/N(CCCOCCCN2CCN(Cc3ccc(Cl)nc3)/C2=N\[N+](=O)[O-])CCN1Cc1ccc(Cl)nc1 | 5.58 |
| CC(C)(CCN1CCN(Cc2ccc(Cl)nc2)/C1=N\[N+](=O)[O-])CCN1CCN(Cc2ccc(Cl)nc2)/C1=N\[N+](=O)[O-] | 5.84 |
| O=[N+]([O-])/N=C1\N(Cc2ccc(Cl)nc2)CCN1Cc1cccc(CN2CCN(Cc3ccc(Cl)nc3)/C2=N\[N+](=O)[O-])n1 | 5.28 |

Please look up its pKi: `O=C(/N=C1/N(CCCCCCN2CCN(Cc3ccc(Cl)nc3)/C2=N/C(=O)C(F)(F)F)CCN1Cc1ccc(Cl)nc1)C(F)(F)F`
4.59

Please look up its pKi: O=[N+]([O-])NC1=NCCN1Cc1ccc(Cl)nc1 [IMIDACLOPRID]
8.34

Please look up its pKi: `O=[N+]([O-])/N=C1/N(Cc2ccc(CN3CCN(Cc4ccc(Cl)nc4)/C3=N\[N+](=O)[O-])cc2)CCN1Cc1ccc(Cl)nc1`
5.64

Please look up its pKi: `O=C(/N=C1/N(CCCCCCCCN2CCN(Cc3ccc(Cl)nc3)/C2=N\C(=O)C(F)(F)F)CCN1Cc1ccc(Cl)nc1)C(F)(F)F`
4.59
